System: Haemophilus parainfluenzae
Assay: growth AUC normalised to DMSO control (fraction of control); higher = less growth inhibition, active = hit call of the paper
Conditions: 20 µM
Structures can show the parent of a compound that is named as a salt.
Please go through the items and note down their growth AUC normalised to DMSO control.
Answer field: number only, no words.

Request: // query growth AUC normalised to DMSO control value for entry `Nc1nc(N)c2nc(-c3ccccc3)c(N)nc2n1`
Result: 0.935

Request: Try this compound too: Clc1ccc(C(Cn2ccnc2)OCc2ccsc2Cl)c(Cl)c1 (stereo not given)
Result: 0.934

Request: Try this compound too: `CC1(C)OC(=O)NC1=O`
Result: 1

Request: Try this compound too: CCCCc1oc2ccccc2c1C(=O)c1cc(I)c(OCCN(CC)CC)c(I)c1 [Amiodarone hydrochloride]
Result: 0.96

Request: Try this compound too: CCN(CC)CCNC(=O)c1cc(Br)c(N)cc1OC [Bromopride]
Result: 1.03

====

Test system: Haemophilus parainfluenzae
Assay: growth AUC normalised to DMSO control (fraction of control); higher = less growth inhibition, active = hit call of the paper
Details: 20 µM
Counter-ions that a name gives are not always drawn.
Label false if growth AUC normalised to DMSO control falls below 1; label true in every other case.

Request: Would you say `O=C1O[C@H]([C@@H](O)CO)C(O)=C1O` shows growth AUC normalised to DMSO control at minimum 1?
Result: true

Request: Try this molecule too: `CN1C[C@H](CNC(=O)OCc2ccccc2)C[C@@H]2c3cccc4c3c(cn4C)C[C@H]21`
Result: false

Request: Try this molecule too: O=C(COc1ccc(Cl)cc1)N1CCN(Cc2ccc3c(c2)OCO3)CC1 [Fipexide hydrochloride]
Result: false

Request: Try this molecule too: `CCn1cc(C(=O)O)c(=O)c2cc(F)c(N3CCNCC3)cc21`
Result: false

Request: Try this molecule too: CN1CCN(CCCN2c3ccccc3Sc3ccc(C(F)(F)F)cc32)CC1 [Trifluoperazine dihydrochloride]
Result: false

Request: Try this molecule too: CCCCC(CC)CN1CN(CC(CC)CCCC)CC(C)(N)C1 (configuration not stated)
Result: true

Request: Try this molecule too: `CN1CCN(c2c(F)cc3c(=O)c(C(=O)O)cn(CCF)c3c2F)CC1`
Result: false

Request: Try this molecule too: CN(C)CCOC1=Cc2ccccc2Sc2ccc(Cl)cc21 [Zotepine]
Result: false

Request: Try this molecule too: COc1cc(C(=O)OCCCN2CCCN(CCCOC(=O)c3cc(OC)c(OC)c(OC)c3)CC2)cc(OC)c1OC [Dilazep dihydrochloride]
Result: false

Request: Try this molecule too: `C#Cc1cccc(Nc2ncnc3cc(OCCOC)c(OCCOC)cc23)c1`
Result: true

Request: Try this molecule too: NC1CCN(c2c(F)cc3c(=O)c(C(=O)O)cn(C4CC4)c3c2Cl)C1 (configuration not stated)
Result: false

Request: Try this molecule too: Fc1ccc(C(c2ccc(F)cc2)N2CCN(C/C=C/c3ccccc3)CC2)cc1 [Flunarizine dihydrochloride]
Result: false

Request: Try this molecule too: CN(C)CCN(Cc1ccc(Cl)cc1)c1ccccn1 [Chloropyramine hydrochloride]
Result: true

Request: Try this molecule too: N[C@@H](C(=O)N[C@@H]1C(=O)N2C(C(=O)O)=C(Cl)CS[C@H]12)c1ccccc1 [Cefaclor hydrate]
Result: false

====

Tested on: S. enterica typhimurium WT;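 also: active when median AUC fell below 0.1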
Experiment: growth AUC normalised to DMSO control (median) (fraction of control); higher = less growth inhibition, active = hit call of the paper
Conditions: 20 µM
Counter-ions that a name gives are not always drawn.
assay endpoint: growth AUC normalised to DMSO control
Answer field: number only, no words.

Request: What reported growth AUC normalised to DMSO control corresponds to CCCC[N+]1(C)[C@@H]2C[C@@H](OC(=O)[C@H](CO)c3ccccc3)C[C@H]1[C@@H]1O[C@@H]12 (stereo not given in full) [N-Butylscopolammonium bromide] on S. enterica typhimurium WT?
Result: 1

Request: Try this compound too: O=C(CCCN1CCC2(CC1)C(=O)NCN2c1ccccc1)c1ccc(F)cc1 [Spiperone]
Result: 0.995

Request: Try this compound too: CN1[C@@H]2C[C@@H](OC(=O)[C@H](CO)c3ccccc3)C[C@H]1[C@@H]1O[C@@H]12 [Scopolamine hydrochloride]
Result: 1

Request: Try this compound too: C[C@]12Cc3c[nH]nc3C[C@@H]1CC[C@@H]1[C@@H]2CC[C@@]2(C)[C@H]1CC[C@]2(C)O [Stanozolol]
Result: 1.02

Request: Try this compound too: CN[C@@H]1[C@@H](O)[C@@H](O[C@@H]2[C@@H](O)[C@H](O[C@H]3O[C@H](CN)CC[C@H]3N)[C@@H](N)C[C@H]2N)OC[C@]1(C)O.CN[C@@H]1[C@@H](O)[C@@H](O[C@@H]2[C@@H](O)[C@H](O[C@H]3O[C@H]([C@@H](C)N)CC[C@H]3N)[C@@H](N)C[C@H]2N)OC[C@]1(C)O.CN[C@@H]1[C@@H](O)[C@@H](O[C@@H]2[C@@H](O)[C@H](O[C@H]3O[C@H]([C@@H](C)NC)CC[C@H]3N)[C@@H](N)C[C@H]2N)OC[C@]1(C)O [Gentamicine sulfate]
Result: 1

====

System: Haemophilus parainfluenzae
Experiment: growth AUC normalised to DMSO control (fraction of control); higher = less growth inhibition, active = hit call of the paper
Conditions: 20 µM
Structures can show the parent of a compound that is named as a salt.
Please go through the items and note down their growth AUC normalised to DMSO control.
Answer field: number only, no words.

Request: // query growth AUC normalised to DMSO control value for entry C#C[C@]1(O)CC[C@H]2[C@@H]3CCC4=CC(=O)CCC4=C3C=C[C@@]21CC [Gestrinone]
Result: 1.03

Request: Try this compound too: CC(N)CCCC(C)(C)O (stereo not drawn) [Heptaminol hydrochloride]
Result: 1.02

Request: Try this compound too: COc1ccccc1OCC(O)CO (stereo not drawn) [Guaifenesin]
Result: 1.04

Request: Try this compound too: Clc1ccc2c(c1)CCc1cccnc1C2=C1CCNCC1 [Desloratadine]
Result: 1.03

Request: Try this compound too: CCN(CC)CCOC(=O)C1(c2ccc([N+](=O)[O-])cc2)CCCC1 [Nitrocaramiphen hydrochloride]
Result: 1.01

Request: Try this compound too: CCCCOc1cc(C(=O)NCCN(CC)CC)c2ccccc2n1 [Dibucaine]
Result: 0.849

Request: Try this compound too: NC(=O)OCC(O)COc1ccc(Cl)cc1 (stereo not drawn) [Chlorphensin carbamate]
Result: 1.01

Request: Try this compound too: Cc1c(C)c2c(c(C)c1O)CCC(C)(C(=O)O)O2 (stereo not drawn) [Trolox]
Result: 1

Request: Try this compound too: NCCc1cc[nH]n1 [Betazole hydrochloride]
Result: 1

Request: Try this compound too: CN(C)CCC(c1ccc(Cl)cc1)c1ccccn1 (stereo not drawn) [Chlorpheniramine maleate]
Result: 0.995

Request: Try this compound too: CC1CNc2c(cccc2S(=O)(=O)N[C@@H](CCCNC(=N)N)C(=O)N2CC[C@@H](C)C[C@@H]2C(=O)O)C1 (stereo partly drawn) [Argatroban]
Result: 1.04

Request: Try this compound too: CCCC(=O)Nc1ccc(OCC(O)CNC(C)C)c(C(C)=O)c1 (stereo not drawn) [Acebutolol hydrochloride]
Result: 1.03

Request: Try this compound too: CCCNC(=O)NS(=O)(=O)c1ccc(Cl)cc1 [Chlorpropamide]
Result: 0.995

Request: Try this compound too: CCN1CCN(C(=O)N[C@@H](C(=O)N[C@@H]2C(=O)N3[C@@H]2SC(C)(C)[C@@H]3C(=O)O)c2ccccc2)C(=O)C1=O [Piperacillin sodium salt]
Result: 0.0495

Request: Try this compound too: O=c1c2ccccc2[se]n1-c1ccccc1 [Ebselen]
Result: 0.874

Request: Try this compound too: CN(C)CCOc1ccc(/C(=C(/CCCl)c2ccccc2)c2ccccc2)cc1 [Toremifene]
Result: 0.997

Request: Try this compound too: CCOc1ccc(Cc2nccc3cc(OCC)c(OCC)cc23)cc1OCC [Ethaverine hydrochloride]
Result: 1.02

Request: Try this compound too: COc1cc2c(c(OC)c1OC)-c1ccc(OC)c(=O)cc1[C@@H](NC(C)=O)CC2 [Colchicine]
Result: 0.981

====

Please go through the items and note down their growth AUC normalised to DMSO control.
Test system: S. enterica typhimurium WT;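 also: active when median AUC fell below 0.1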
Test: growth AUC normalised to DMSO control (median) (fraction of control); higher = less growth inhibition, active = hit call of the paper
Details: 20 µM
Where a name gives a salt, the structure may show the parent alone.
Answer field: number only, no words.

Request: What reported growth AUC normalised to DMSO control corresponds to N[C@@H]1C[C@H]1c1ccccc1 [Tranylcypromine hydrochloride] on S. enterica typhimurium WT?
Result: 1.01

Request: Try this compound too: `C#C[C@]1(O)CC[C@H]2[C@@H]3CCC4=CC(=O)CC[C@]4(C)[C@H]3CC[C@@]21C`
Result: 1.02

Request: Try this compound too: CNC(C)(C)Cc1ccccc1 [Mephentermine hemisulfate]
Result: 1

Request: Try this compound too: `C#C[C@]1(O)C=C[C@H]2[C@@H]3CCC4=CC(=O)CC[C@@H]4[C@H]3CC[C@@]21CC`
Result: 0.997

Request: Try this compound too: `C[C@]12CC[C@H](O)C[C@H]1CC[C@@H]1[C@@H]2C[C@@H](O)[C@]2(C)[C@@H](C3=CC(=O)OC3)CC[C@]12O`
Result: 1.01

Request: Try this compound too: `CCN(C)C(=O)Oc1cccc([C@H](C)N(C)C)c1`
Result: 1.01

Request: Try this compound too: CC1C=CC=CCCC=CC=CC=CC=CC(OC2OC(C)C(O)C(N)C2O)CC2OC(O)(CC(O)C(O)CCC(O)CC(O)CC(O)CC(=O)OC(C)C(C)C1O)CC(O)C2C(=O)O (configuration not stated)
Result: 0.997

From: the supplement of paper PMC12350171
